Sourced from PubChem BioAssay (EPA / NIEHS)

# Assay text: BSK_hDFCGF_Proliferation: Cell Proliferation Assessment in the BioMAP Diversity Plus: hDFCGF Assay (AID 2283059);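 note: curves fitted for both rise and fall of signal versus DMSO baseline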
# Condition notes: primary human foreskin fibroblasts
Calls of active or inactive are those of the source. Rule for the calls: active = hit-call score of the fitted dose curve at least 0.9, where 1 is the maximum; inactive = score below 0.9.
Outcome codes: t = active, f = inactive

# Compound, Class
rows = [
    ("CC1COC(Cn2cncn2)(c2ccc(Oc3ccc(Cl)cc3)cc2Cl)O1 (centres undefined)", "t"),
    ("COc1nc(C)nc(NC(=O)NS(=O)(=O)c2ccccc2Cl)n1", "f"),
    ("CCON=C(CC)C1=C(O)CC(c2c(C)cc(C)cc2C)CC1=O (centres undefined)", "f"),
    ("CCNc1nc(Cl)nc(NC(C)C)n1", "f"),
]

###

# Read-out: Signal transducer and activator of transcription 3 (Homo sapiens) (UniProt P40763)
# Sequence (P40763 whole entry, looked up): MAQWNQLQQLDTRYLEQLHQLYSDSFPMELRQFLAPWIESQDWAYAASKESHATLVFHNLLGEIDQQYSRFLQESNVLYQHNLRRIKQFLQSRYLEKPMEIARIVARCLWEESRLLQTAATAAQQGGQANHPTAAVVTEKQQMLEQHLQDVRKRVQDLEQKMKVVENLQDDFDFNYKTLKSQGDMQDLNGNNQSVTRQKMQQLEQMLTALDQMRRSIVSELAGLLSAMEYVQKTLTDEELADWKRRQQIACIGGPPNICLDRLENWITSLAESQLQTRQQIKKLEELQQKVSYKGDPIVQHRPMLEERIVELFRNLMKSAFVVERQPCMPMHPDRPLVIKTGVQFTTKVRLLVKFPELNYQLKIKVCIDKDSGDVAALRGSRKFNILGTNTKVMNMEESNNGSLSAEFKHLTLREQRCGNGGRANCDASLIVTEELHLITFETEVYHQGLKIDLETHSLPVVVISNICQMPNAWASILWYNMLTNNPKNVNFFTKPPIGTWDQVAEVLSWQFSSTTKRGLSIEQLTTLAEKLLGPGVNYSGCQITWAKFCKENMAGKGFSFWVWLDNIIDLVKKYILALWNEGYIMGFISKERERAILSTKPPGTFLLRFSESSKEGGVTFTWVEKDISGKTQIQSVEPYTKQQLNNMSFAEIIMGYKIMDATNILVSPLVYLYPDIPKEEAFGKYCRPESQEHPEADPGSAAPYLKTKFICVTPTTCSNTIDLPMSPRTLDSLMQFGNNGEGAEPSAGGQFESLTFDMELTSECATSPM
# Assay text: LTEA_HepaRG_STAT3: Life Technologies and Expression Analysis (LTEA) Assay for Signal transducer and activator of transcription (STAT3) using HepaRG (AID 2283529)
# Condition notes: mRNA level, 48 h; actives raise or lower the signal
Activity calls are given as the source filed them. How the source made its calls: active means hit-call score of the fitted dose curve at least 0.9, where 1 is the maximum; inactive means score below 0.9.

# Compound, outcome
records = [
    ("COc1nc(NC(C)C)nc(NC(C)C)n1", "inactive"),
    ("CCNc1nc(Cl)nc(NC(C)C)n1", "inactive"),
    ("C=CCC1=C(C)C(OC(=O)C2C(C=C(C)C)C2(C)C)CC1=O (stereo unspecified)", "inactive"),
    ("O=C(O)COc1nc(Cl)c(Cl)cc1Cl", "inactive"),
    ("CON(C)C(=O)Nc1ccc(Cl)c(Cl)c1", "inactive"),
    ("CCCCC(CC)COC(=O)c1ccccc1C(=O)OCC(CC)CCCC (stereo unspecified)", "inactive"),
    ("COC(=O)c1ccccc1C(=O)OC", "inactive"),
    ("Cc1cc(Cl)ccc1OCC(=O)O", "inactive"),
    ("COC(=O)C(C)Oc1ccc(Oc2ccc(Cl)cc2Cl)cc1 (stereo unspecified)", "inactive"),
    ("Fc1ccc(Oc2ccnc3cc(Cl)cc(Cl)c23)cc1", "inactive"),
    ("CCc1nn(C)c(C(=O)NCc2ccc(C(C)(C)C)cc2)c1Cl", "inactive"),
]

###

# Read-out: Cytochrome P450 4A22 (Homo sapiens) (UniProt Q5TCH4)
# Assay text: LTEA_HepaRG_CYP4A22: Life Technologies and Expression Analysis (LTEA) Assay for Cytochrome P450 4A22 (CYP4A22) using HepaRG (AID 2283495)
# Condition notes: mRNA level, 48 h; actives raise or lower the signal
Active and inactive are the calls of the source. Rule for the calls: active = hit-call score of the fitted dose curve at least 0.9, where 1 is the maximum; inactive = score below 0.9.
Labels: active, inactive

# Molecule, Class
measured = [
    ("CCOC(=O)C(Cl)Cc1cc(-n2nc(C)n(C(F)F)c2=O)c(F)cc1Cl (stereo not drawn)", "inactive"),
    ("N#Cc1cc(Br)c(O)c(Br)c1", "active"),
    ("N#Cc1nn(-c2c(Cl)cc(C(F)(F)F)cc2Cl)c(N)c1S(=O)C(F)(F)F (stereo not drawn)", "active"),
    ("COC(=O)C(C)Oc1ccc(Oc2ccc(Cl)cc2Cl)cc1 (stereo not drawn)", "active"),
    ("CNC(=O)ON=CC(C)(C)SC", "inactive"),
    ("CNC(=S)S", "inactive"),
    ("CCc1nn(C)c(C(=O)NCc2ccc(C(C)(C)C)cc2)c1Cl", "active"),
    ("CC(Oc1ccc(Cl)cc1Cl)C(=O)O (stereo not drawn)", "inactive"),
    ("OC(c1ccc(Cl)cc1)(c1cncnc1)c1ccccc1Cl (stereo not drawn)", "active"),
    ("CON(C)C(=O)Nc1ccc(Cl)c(Cl)c1", "active"),
    ("COc1cnc(OC)n2nc(NS(=O)(=O)c3c(OCC(F)F)cccc3C(F)(F)F)nc12", "active"),
    ("CCOC(=O)CC(SP(=S)(OC)OC)C(=O)OCC (stereo not drawn)", "inactive"),
    ("COC(=O)N(OC)c1ccccc1COc1ccn(-c2ccc(Cl)cc2)n1", "active"),
    ("Cc1cc(Cl)ccc1OCC(=O)O", "inactive"),
    ("Oc1ccccc1-c1ccccc1", "inactive"),
    ("COP(=S)(OC)Oc1nc(Cl)c(Cl)cc1Cl", "inactive"),
    ("COc1ccc(C(c2ccc(OC)cc2)C(Cl)(Cl)Cl)cc1", "active"),
    ("C=CCC1=C(C)[C@@H](OC(=O)[C@@H]2[C@@H](C=C(C)C)C2(C)C)CC1=O", "active"),
]
